Biological target: JAK3 (Homo sapiens, UniProt P52333)
Construct: made in house; host or cells: SF9 insect cells (baculovirus)
Sequence (P52333 783-1124): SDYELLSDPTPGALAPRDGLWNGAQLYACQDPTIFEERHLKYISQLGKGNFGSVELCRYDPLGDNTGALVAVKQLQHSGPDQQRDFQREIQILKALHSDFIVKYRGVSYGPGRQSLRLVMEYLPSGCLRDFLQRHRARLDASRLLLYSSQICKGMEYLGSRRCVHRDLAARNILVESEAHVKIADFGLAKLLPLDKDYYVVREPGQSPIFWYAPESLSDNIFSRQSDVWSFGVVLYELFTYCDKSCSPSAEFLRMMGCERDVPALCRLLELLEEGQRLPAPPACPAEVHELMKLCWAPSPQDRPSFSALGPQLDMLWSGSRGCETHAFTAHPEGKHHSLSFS
Assay: JAK3 inhibition (Table 4)
Assay type: biochemical
Conditions: read-out: JAK3 Ki
pKi: −log10 of the molar value.
Would you mind labelling by pKi? At or over 7 is Condition met, under is Condition not met.

Example entries and their recorded answers appear below.
[[record]]
compound = "FC(F)(F)c1nc2cnc3[nH]ccc3c2n1[C@@H]1CCCNC1"
test_system = "JAK3 (Homo sapiens, UniProt P52333)"
assigned_category = "Condition not met"

[[record]]
compound = "CC(C)NC(=O)C(C)c1nc2cnc3[nH]ccc3c2n1C1CCN(CCC#N)CC1 (racemic)"
test_system = "JAK3 (Homo sapiens, UniProt P52333)"
assigned_category = "Condition met"

[[record]]
compound = "CC(C)(C)OC(=O)N1CC(CN[C@H]2CC[C@H](n3cnc4cnc5[nH]ccc5c43)CC2)C1"
test_system = "JAK3 (Homo sapiens, UniProt P52333)"
assigned_category = "Condition not met"

[[record]]
compound = "CCOC(=O)N1CCC[C@@H](n2c([C@@H](C)O)nc3cnc4[nH]ccc4c32)C1"
test_system = "JAK3 (Homo sapiens, UniProt P52333)"
assigned_category = "Condition not met"

[[record]]
compound = "N#Cc1cccc(S(=O)(=O)N2CCC(n3cnc4cnc5[nH]ccc5c43)CC2)c1"
test_system = "JAK3 (Homo sapiens, UniProt P52333)"
assigned_category = "Condition met"


Lookup: Has CC(CC#N)N1CCC(n2c(C3CCC3)nc3cnc4[nH]ccc4c32)CC1 (racemic) a recorded pKi greater than or equal to 7?
Found: Condition met

Lookup: Determine whether measured pKi meets or exceeds 7 for "CC(C)(C)OC(=O)N1CCC(C)(n2cnc3cnc4[nH]ccc4c32)CC1"
Found: Condition not met
